Data origin, for the record: patent US4372948A

Test system: total cholesterol
assay-info: Anti-hyperlipemia activity, total cholesterol in blood
Type: in vivo, rabbit (Japanese white male)
condition-info: oral, 300 mg/kg once, 3 hrs.; negative = raising
value-type: Reduction of cholesterol level after 3 hrs. (mg/dL)

compound	target-entity	numeric-readout
O=C(OCc1ccccc1)c1ccc(NC2O[C@H](CO)[C@@H](O)[C@H](O)[C@H]2O)cc1 (stereo partly drawn) [Compound 14, benzyl p-aminobenzoate-N-D-glucoside]	total cholesterol	3
O=C(OC1CCCCC1)c1cccc(NC2O[C@H](CO)[C@@H](O)[C@H](O)[C@@H]2O)c1 (stereo partly drawn) [Compound 17, cyclohexyl m-aminobenzoate-N-D-mannoside]	total cholesterol	-2
O=C(OC1CCCCC1)c1ccc(NC2OC[C@@H](O)[C@H](O)[C@H]2O)cc1 (stereo partly drawn) [Compound 18, cyclohexyl p-aminobenzoate-N-D-xyloside]	total cholesterol	2
NC(=O)c1ccccc1NC1(CO)OC[C@@H](O)[C@@H](O)[C@@H]1O (stereo partly drawn) [Compound 1, o-Aminobenzoic acid amide-N-D-fructoside]	total cholesterol	-2
